Procedure summary: Multiple day oral dosing in dogs (exposure, clinical and anatomic pathology)
Type: in vivo, Beagle dogs
Measurement context: Beagle, dog, plasma, po, 0.1 mg/kg/day; read-out: Exposure AUC0-24 hr, D14, total
Excerpt: The extent and severity of findings is consistent with increased inhibition of PI3Kδ (delta) at exposure multiples over CD69 IC50 for the comparator compounds.
Result type: AUC(0-t) (µM·h)
Number in µM·h, nothing else.

Field request: AUC(0-t) | item: NC(=O)[C@@H](Nc1ccc2c(c1)OCCn1cc(N3C(=O)OC[C@H]3C(F)F)nc1-2)C1CC1 0.27

---

Procedure summary: Multiple day oral dosing in dogs (exposure, clinical and anatomic pathology)
Assay type: in vivo, Beagle dogs
Measurement context: beagle, dog, plasma, po, 0.05 mg/kg/day; read-out: Cmax D14, total
Result type: Cmax (nM)
Number in nM, nothing else.

Field request: Cmax | item: C[C@H](Nc1ccc2c(c1)OCCn1cc(N3C(=O)OC[C@H]3C(F)F)nc1-2)C(N)=O [Compound 101] 33

---

Procedure summary: Multiple day oral dosing in dogs (exposure, clinical and anatomic pathology)
Assay type: in vivo, Beagle dogs
Measurement context: Beagle, dog, plasma, oral, 0.3 mg/kg/day; read-out: Cmin D14, total
Result type: concentration at 14 day (nM)
Number in nM, nothing else.

Field request: concentration at 14 day | item: NC(=O)[C@@H](Nc1ccc2c(c1)OCCn1cc(N3C(=O)OC[C@H]3C(F)F)nc1-2)C1CC1 11

---

Procedure summary: Multiple day oral dosing in dogs (exposure, clinical and anatomic pathology)
Format: in vivo, Beagle dogs
Measurement context: Beagle, dog, plasma, po, 0.3 mg/kg/day; read-out: Cmax D14, total
Result type: Cmax (nM)
Number in nM, nothing else.

Field request: Cmax | item: NC(=O)[C@@H](Nc1ccc2c(c1)OCCn1cc(N3C(=O)OC[C@H]3C(F)F)nc1-2)C1CC1 130

---

Procedure summary: Multiple day oral dosing in dogs (exposure, clinical and anatomic pathology)
Format: in vivo, Beagle dogs
Measurement context: Beagle, dog, plasma, po, 1 mg/kg/day; read-out: Cmax D7, total
Result type: Cmax
For clarity, give the value followed by its unit.

Field request: Cmax | item: Cc1nc(-c2cn3c(n2)-c2ccc(-c4cnn(C(C)(C)C(N)=O)c4)cc2OCC3)n(C(C)C)n1 [taselisib] 180 nM

---

Procedure summary: Multiple day oral dosing in dogs (exposure, clinical and anatomic pathology)
Type: in vivo, Beagle dogs
Measurement context: Beagle, dog, plasma, oral, 0.3 mg/kg/day; read-out: Cmin D7, total
Result type: concentration at 7 day (nM)
Number in nM, nothing else.

Field request: concentration at 7 day | item: Cc1nc(-c2cn3c(n2)-c2ccc(-c4cnn(C(C)(C)C(N)=O)c4)cc2OCC3)n(C(C)C)n1 [taselisib] 2

---

Procedure summary: Multiple day oral dosing in dogs (exposure, clinical and anatomic pathology)
Format: in vivo, Beagle dogs
Measurement context: Beagle, dog, plasma, po, 1 mg/kg/day; read-out: Exposure AUC0-24 hr, D14, total
Result type: AUC(0-t) (µM·h)
Number in µM·h, nothing else.

Field request: AUC(0-t) | item: NC(=O)[C@@H](Nc1ccc2c(c1)OCCn1cc(N3C(=O)OC[C@H]3C(F)F)nc1-2)C1CC1 [Compound 103] 2.54

---

Recorded fraction unbound values for a group of compounds are listed next.
Procedure summary: Unbound fraction in mouse plasma (Fu)
Format: in vitro ADME
Measurement context: read-out: Fu mouse (unbound fraction in species plasma)
Would you mind answering with just the numeric figure?

{"columns": ["Structure smiles string", "fraction unbound"],
 "data": [
  ["NC(=O)[C@@H](Nc1ccc2c(c1)OCCn1cc(N3C(=O)OC[C@H]3C(F)F)nc1-2)C1CC1", 0.03],
  ["CC(C)n1ncnc1-c1cn2c(n1)-c1ccc(O[C@@H](C)C(N)=O)cc1OCC2", 0.36],
  ["C[C@H](Nc1ccc2c(c1)OCCn1cc(N3C(=O)OC[C@H]3C(F)F)nc1-2)C(N)=O", 0.252]
]}

Moving on to another compound below.
Field request: fraction unbound | item: Cc1nc(NC(=O)N2CCC[C@H]2C(N)=O)sc1-c1ccnc(C(C)(C)C(F)(F)F)c1 0.082

---

Procedure summary: Multiple day oral dosing in dogs (exposure, clinical and anatomic pathology)
Format: in vivo, Beagle dogs
Measurement context: Beagle, dog, plasma, po, 0.3 mg/kg/day; read-out: Exposure AUC0-24 hr, D7, total
Result type: AUC(0-t) (µM·h)
Number in µM·h, nothing else.

Field request: AUC(0-t) | item: Cc1nc(-c2cn3c(n2)-c2ccc(-c4cnn(C(C)(C)C(N)=O)c4)cc2OCC3)n(C(C)C)n1 0.44

---

Recorded Selectivity for PI3Kα vs. PI3Kδ values for a group of molecules are listed next.
Assayed system: UniProt:P42336
Procedure summary: Biochemical inhibition of PI3K alpha (ADP-Glo lipid kinase assay, Example 901)
Measurement context: Ki ratio delta/alpha, fold
Would you mind answering with just the numeric figure?

{"columns": ["Molecule", "Assay value"],
 "data": [
  ["C[C@H](Nc1ccc2c(c1)OCCn1cc(N3C(=O)OC[C@H]3C(F)F)nc1-2)C(N)=O", 361]
]}

Field request: Selectivity for PI3Kα vs. PI3Kδ | item: CC(C)C(Oc1ccc2c(c1)OCCn1cc(-c3ncnn3CC(F)(F)F)nc1-2)C(N)=O (centres unmarked) [Compound 501, reference compound] 6.1

Field request: Selectivity for PI3Kα vs. PI3Kδ | item: C[C@@H]1COC(=O)N1c1cn2c(n1)-c1ccc(N[C@H](C(N)=O)C3CCC3)cc1OCC2 301

Field request: Selectivity for PI3Kα vs. PI3Kδ | item: C[C@H](Nc1ccc2c(c1)OCCn1cc(N3C(=O)OC[C@H]3CF)nc1-2)C(N)=O 416

Field request: Selectivity for PI3Kα vs. PI3Kδ | item: CC(C)(O)Cn1cc(-c2ccc3c(c2)OCCc2sc(N4C(=O)OCC4(C)C)nc2-3)cn1 [356 (U.S. Pat. No. 8,263,633), reference compound] 0.95

---

Procedure summary: Multiple day oral dosing in dogs (exposure, clinical and anatomic pathology)
Assay type: in vivo, Beagle dogs
Measurement context: Beagle, plasma, po; dog, alpelisib (BYL-719) 30 mg/kg/day QD, D7; read-out: Cmax D7, total
Result type: Cmax (µM)
Number in µM, nothing else.

Field request: Cmax | item: Cc1nc(NC(=O)N2CCC[C@H]2C(N)=O)sc1-c1ccnc(C(C)(C)C(F)(F)F)c1 [alpelisib] 20.6

---

Procedure summary: Multiple day oral dosing in dogs (exposure, clinical and anatomic pathology)
Format: in vivo, Beagle dogs
Measurement context: beagle, plasma, po; dog, alpelisib (BYL-719) 3 mg/kg/day QD, D7; read-out: Exposure AUC0-24 hr, D7, total
Result type: AUC(0-t) (µM·h)
Number in µM·h, nothing else.

Field request: AUC(0-t) | item: Cc1nc(NC(=O)N2CCC[C@H]2C(N)=O)sc1-c1ccnc(C(C)(C)C(F)(F)F)c1 14

---

Procedure summary: Multiple day oral dosing in dogs (exposure, clinical and anatomic pathology)
Type: in vivo, Beagle dogs
Measurement context: Beagle, plasma, po; dog, alpelisib (BYL-719) 10 mg/kg/day QD, D7; read-out: Cmax D7, total
Result type: Cmax (µM)
Number in µM, nothing else.

Field request: Cmax | item: Cc1nc(NC(=O)N2CCC[C@H]2C(N)=O)sc1-c1ccnc(C(C)(C)C(F)(F)F)c1 3.58

---

As a worked illustration, we turn to Ki data collected for PI3Kα (Homo sapiens (Human), UniProt P42336).
Number in nM, nothing else.

{"columns": ["Molecule", "Ki (nM)"],
 "data": [
  ["C[C@H](Nc1ccc2c(c1)OCCn1cc(-c3ncnn3CC(F)(F)F)nc1-2)C(N)=O [Compound 529, reference compound]", 0.023],
  ["CC(C)n1ncnc1-c1cn2c(n1)-c1ccc(N(C)[C@@H](C)C(N)=O)cc1OCC2 [Compound 550, reference compound]", 0.107],
  ["C[C@@H]1COC(=O)N1c1cn2c(n1)-c1ccc(N[C@H](C(N)=O)C3CC3)cc1OCC2", 0.464],
  ["CC[C@H](Nc1ccc2c(c1)OCCn1cc(N3C(=O)OC[C@H]3C(F)F)nc1-2)C(N)=O", 0.048]
]}

Moving on to another molecule below.
Field request: Ki | item: C[C@@H]1COC(=O)N1c1cn2c(n1)-c1ccc(N[C@H](C(N)=O)C3CCC3)cc1OCC2 0.949

---

Assayed system: PI3Kγ (Homo sapiens (Human))
Sequence (P48736 whole entry): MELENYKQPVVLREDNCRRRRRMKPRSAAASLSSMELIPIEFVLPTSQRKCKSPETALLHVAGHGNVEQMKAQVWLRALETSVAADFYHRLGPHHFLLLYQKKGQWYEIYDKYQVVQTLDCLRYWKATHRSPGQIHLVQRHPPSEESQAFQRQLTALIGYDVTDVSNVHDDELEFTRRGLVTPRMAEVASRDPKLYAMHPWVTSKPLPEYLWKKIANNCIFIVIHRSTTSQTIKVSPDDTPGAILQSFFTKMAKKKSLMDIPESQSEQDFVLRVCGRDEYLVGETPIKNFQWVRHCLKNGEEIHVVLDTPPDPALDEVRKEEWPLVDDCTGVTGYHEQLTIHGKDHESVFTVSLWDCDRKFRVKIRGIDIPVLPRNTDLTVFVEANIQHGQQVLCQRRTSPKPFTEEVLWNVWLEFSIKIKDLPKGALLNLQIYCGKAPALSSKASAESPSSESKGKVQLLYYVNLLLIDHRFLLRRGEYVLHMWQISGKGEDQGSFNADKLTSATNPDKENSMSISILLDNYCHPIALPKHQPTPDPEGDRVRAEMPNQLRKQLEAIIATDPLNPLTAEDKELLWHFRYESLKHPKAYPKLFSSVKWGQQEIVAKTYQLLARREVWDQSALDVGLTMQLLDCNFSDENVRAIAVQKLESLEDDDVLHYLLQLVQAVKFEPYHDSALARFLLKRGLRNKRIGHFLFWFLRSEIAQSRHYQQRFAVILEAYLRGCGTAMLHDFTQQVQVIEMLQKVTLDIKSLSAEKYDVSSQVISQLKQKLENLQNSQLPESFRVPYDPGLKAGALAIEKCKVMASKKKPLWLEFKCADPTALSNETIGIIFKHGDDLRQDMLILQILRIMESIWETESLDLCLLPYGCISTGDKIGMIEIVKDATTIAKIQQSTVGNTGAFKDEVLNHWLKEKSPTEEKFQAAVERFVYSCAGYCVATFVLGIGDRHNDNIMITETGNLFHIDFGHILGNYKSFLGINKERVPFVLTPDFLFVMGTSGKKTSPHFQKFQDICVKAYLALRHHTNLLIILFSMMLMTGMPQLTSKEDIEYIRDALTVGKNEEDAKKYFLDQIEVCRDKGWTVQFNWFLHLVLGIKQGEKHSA
Rule for this label: true means Ki is less than 0.02 µM; false means Ki is at least 0.02 µM.

{"columns": ["Structure smiles string", "Qualitative label"],
 "data": [
  ["C[C@H](Nc1ccc2c(c1)OCCn1cc(N3C(=O)OC[C@H]3CF)nc1-2)C(N)=O", "true"],
  ["NC(=O)[C@@H](Nc1ccc2c(c1)OCCn1cc(N3C(=O)OC[C@H]3CF)nc1-2)C1CC1", "false"],
  ["C[C@@H]1COC(=O)N1c1cn2c(n1)-c1ccc(N[C@H](C(N)=O)C3CCC3)cc1OCC2", "false"],
  ["C[C@H](Nc1ccc2c(c1)OCCn1cc(N3C(=O)OC[C@H]3C(F)F)nc1-2)C(N)=O", "true"]
]}

Hello, I'm reviewing records and need to know if Ki of CC[C@H](Nc1ccc2c(c1)OCCn1cc(N3C(=O)OC[C@H]3C(F)F)nc1-2)C(N)=O is below 0.02 µM. Could you check? false
